# credit: PubChem BioAssay (NCI)

Tested on: BT-549 breast
Test: NCI tumour cell line growth inhibition, 48 h
measured attribute: TGI (µM)
Answer with a number only, understood to be in µM.

Check the records and state TGI for CC(=O)OC1CC2C(C)(C)C(=O)C=C[C@]2(C)C2CC[C@]3(C)C(OCC(=O)[C@H]3c3ccoc3)[C@]12C (stereo not given in full)
57.8

Check the records and state TGI for c1ccc(C(NC2CCCCC2NCCNC2CCCCC2NC(c2ccccc2)(c2ccccc2)c2ccccc2)(c2ccccc2)c2ccccc2)cc1 (stereo not given)
54.1

Check the records and state TGI for `COc1ccc(Oc2ccc3cc4c(cc3c2O)OCO4)c2cc(C)oc12`
71.4

* * *

Test system: NCI-H23 lung
Assay: NCI tumour cell line growth inhibition, 48 h
measured attribute: TGI

Check the records and state TGI for CC(=O)C1C(=O)C(=O)N(c2ccc(Cl)c(Cl)c2)C1=O (stereo unspecified)
> 100 µM

Check the records and state TGI for `Cc1nc2sccn2c1C(=O)N/N=C1\SCC(=O)N1C`
> 100 µM

Check the records and state TGI for `COc1ccc2nc3cccc([N+](=O)[O-])c3c(NCCNCCO)c2c1`
2.7 µM

Check the records and state TGI for `CC(C)C[C@H](NC(=O)Cn1ccc(Nc2ccccc2)cc1=O)B(O)O`
> 100 µM

Check the records and state TGI for `COc1ccc2c(c1)[n+]([O-])c(C#N)c(NC(=O)c1cccs1)[n+]2[O-]`
> 100 µM

Check the records and state TGI for `Nc1ccc(S(=O)(=O)Nc2cnc3ccccc3n2)cc1`
> 100 µM

Check the records and state TGI for CC(C)CSCC1OC(n2cnc3c(N)nccc32)C(O)C1O (stereo unspecified)
> 100 µM

Check the records and state TGI for `[Cl-].[Nd+3].[O-]/N=C(\c1ccccc1)c1ccccn1.[O-]/N=C(\c1ccccc1)c1ccccn1.[O-]/N=C(\c1ccccc1)c1ccccn1`
82.7 µM

Check the records and state TGI for CC(=O)OC1Oc2ccccc2-c2oc(=O)c(-c3ccc(F)cc3)cc21 (stereo unspecified)
> 100 µM

Check the records and state TGI for COc1nc(Cl)nc(Cl)c1Cl (tested in a mixture with another compound)
20.8 µM

Check the records and state TGI for CC(=O)c1c2c(cc3c1CC1(C3)Cc3cc4c(c(C(=O)O)c3C1)CCCC4)CCCC2 (stereo unspecified) (tested in a mixture with another compound)
> 100 µM

Check the records and state TGI for `CSC(=NC#N)S/C=C/C(=O)c1ccc(Cl)cc1`
52.4 µM

Check the records and state TGI for NC1C(O)C(O)C(CO)OC1n1cc(F)c(=O)[nH]c1=O (stereo unspecified)
> 100 µM

Check the records and state TGI for `O=C(O)C1=CN=C(C(=O)O)NN1`
> 100 µM

Check the records and state TGI for `ClCCn1cnc2c(SCc3ccccc3Cl)ncnc21`
> 73.7 µM

Check the records and state TGI for `CSc1ncnc2c1cnn2Cc1cn(CCCCO)nn1`
> 100 µM

Check the records and state TGI for `C=C1C(=O)O[C@H]2[C@H]1CC/C(COC(=O)CCSSCCC(=O)OC/C1=C/CC[C@@]3(C)O[C@H]3[C@H]3OC(=O)C(=C)[C@@H]3CC1)=C\CC[C@@]1(C)O[C@@H]21`
3.72 µM

Check the records and state TGI for `Nn1c2c(c3ccccc3c1=O)C(=O)c1ccccc1-2`
> 50 µM

Check the records and state TGI for `COC(=O)C#Cc1cccc(OC)c1OC`
> 100 µM

Check the records and state TGI for `CCCCCCCC(=O)SCC/C=C/[C@@H]1CC(=O)NCc2cccc(n2)CN(Cc2ccc3ccccc3c2)CC(=O)N[C@@H](C(C)C)C(=O)O1`
> 100 µM

Check the records and state TGI for `O=c1[nH]c2cc(F)c(F)cc2nc1Cc1ccccc1`
> 100 µM

* * *

Test system: NCI-H460 lung
Assay: NCI tumour cell line growth inhibition, 48 h
measured attribute: TGI

Give TGI for O=C1CC2(CCC(O)(c3ccccc3)C(C(=O)c3ccccc3)C2)C(=O)c2ccccc2N1 (centres undefined) tested on NCI-H460 lung.
> 100 µM

Give TGI for `CC1=C(c2cc(C(=O)Nc3cc(C)ccc3C)nc(N)n2)Sc2ccccc2N1` tested on NCI-H460 lung.
> 100 µM

Give TGI for `CCCCCCCCCCn1cccc1/C=C/c1ccc(/C=C/c2cccn2CCCCCCCCCC)cc1` tested on NCI-H460 lung.
> 100 µM

Give TGI for `[Cl-].[Nd+3].[O-]/N=C(\c1ccccc1)c1ccccn1.[O-]/N=C(\c1ccccc1)c1ccccn1.[O-]/N=C(\c1ccccc1)c1ccccn1` tested on NCI-H460 lung.
> 100 µM

Give TGI for CC1=NN(C(=O)CC(=O)N(C(=O)c2ccccc2)c2ccc(Cl)cc2)C(=O)C1N=Nc1ccc([N+](=O)[O-])cc1 (centres undefined) tested on NCI-H460 lung.
> 10 µM

Give TGI for `COc1ccc(OC)c2[nH]c(Sc3c([N+](=O)[O-])ncn3C)nc12` tested on NCI-H460 lung.
> 100 µM

Give TGI for `COc1ccc(CCCNC(=O)Cc2cc(OC)c(OC)cc2CO)cc1OC` tested on NCI-H460 lung.
> 100 µM

Give TGI for `Cn1ncc2c(Nc3ccc(Cl)cc3)c3ccccc3nc21` tested on NCI-H460 lung.
52.7 µM

Give TGI for `O=CC1=C(C(=O)OC(c2ccccc2)c2ccccc2)N2C(=O)[C@@H](NC(=O)Cc3cccs3)[C@H]2SC1` tested on NCI-H460 lung.
> 100 µM

* * *

Test system: MDA-MB-435
Experiment: NCI tumour cell line growth inhibition, 48 h
I'd be grateful if you could share measured TGI for these entries.

Check the records and state TGI for `O=S(=O)(Nc1ccc(Cl)cc1)c1ccc(-c2cnc(C3CC3)o2)cc1`
0.511 µM

Check the records and state TGI for `O=C(Nc1ccccc1)c1cc(S(=O)(=O)n2cc[nH]c2=O)c(S)cc1Cl`
> 100 µM

Check the records and state TGI for `CC(=O)N(O)CCCCCNC(=O)CCC(=O)N(O)CCCCCNC(=O)CCC(=O)N(O)CCCCCN`
> 100 µM

Check the records and state TGI for O=C1c2cc3ccccc3cc2C2(c3ccc(Cl)cc3)NCCN12 (stereo not given)
> 100 µM

Check the records and state TGI for `[N-]=[N+]=Nc1c(N2CCOCC2)c(Cl)nc2ccccc12`
> 100 µM

Check the records and state TGI for `CN(/N=C(\C(=O)O)c1ccccc1)C1=NCCN1`
> 100 µM

Check the records and state TGI for `O=C(Nc1ccc2ncccc2c1)c1cc2c(cc1Cl)Sc1nccn1S2(=O)=O`
17.1 µM

Check the records and state TGI for `CC(=O)N1CCC(Nc2cc(C(=O)NC[C@H](O)CN3CCc4ccccc4C3)ncn2)CC1`
> 100 µM

Check the records and state TGI for `ClCCn1cnc2c(SCc3ccccc3Cl)ncnc21`
50.7 µM

Check the records and state TGI for CC(=O)c1c2c(cc3c1CC1(C3)Cc3cc4c(c(C(=O)O)c3C1)CCCC4)CCCC2 (stereo not given) (tested in a mixture with another compound)
> 100 µM

* * *

System: K-562 leukemia
Experiment: NCI tumour cell line growth inhibition, 48 h; in the data active means GI50 below about 0.43 µM; inactive means the rest
Respond only with the outcome that fits, drawn from class 1 for active, class 0 for inactive

Each compound tested received a call. Report the one for `O=C(Nc1cccc(Cl)c1)Nc1nccs1` .
class 0

Each compound tested received a call. Report the one for CC(=O)OC1Oc2ccccc2-c2oc(=O)c(-c3ccc(F)cc3)cc21 (stereo not given) .
class 0

Each compound tested received a call. Report the one for `Cc1nc2cc(Nc3nc(N4CCCCC4)nc(N4CCOCC4)n3)ccc2n1Cc1ccccc1` .
class 0

Each compound tested received a call. Report the one for `CCCN(CCC)c1ccc(CO)c(Cl)c1` .
class 0

Each compound tested received a call. Report the one for `CN(C)CCCNCc1ccc(-c2ccc(F)c(Cl)c2)o1` .
class 0

Each compound tested received a call. Report the one for `Cc1cc(Oc2ccccc2)ccc1Nc1ncnc2ccc(-c3cnc(Cl)c(NS(C)(=O)=O)c3)cc12` .
class 0

Each compound tested received a call. Report the one for `CC(C)OC(=O)c1cc(NS(=O)(=O)c2ccc3ccccc3c2)cc(C(=O)OC(C)C)c1` .
class 0

Each compound tested received a call. Report the one for `CC(C)C[C@H](NC(=O)Cn1ccc(Nc2ccccc2)cc1=O)B(O)O` .
class 0

Each compound tested received a call. Report the one for CCOC(=O)/C=C1/SC(N2CCCCC2)C(=O)N1CC (stereo not given) .
class 0

Each compound tested received a call. Report the one for Cc1cc(C2CC(O)C(CO)O2)c(Cl)cc1Cl (stereo not given) .
class 0

Each compound tested received a call. Report the one for `C[n+]1c2ccccc2c(Nc2ccc(N3CCCCC3)cc2)c2[nH]c3ccccc3c21` .
class 1

Each compound tested received a call. Report the one for `COc1ccc2c(c1)NC(=O)CN2c1nc(NC2CC2)nc2ccccc12` .
class 1

Each compound tested received a call. Report the one for `NCCN.O=C([O-])C(=O)[O-].O=C([O-])C(=O)[O-].[Co+3].[K+]` .
class 0

Each compound tested received a call. Report the one for `O=C(N/N=C/c1c(Cl)cccc1Cl)c1cccnc1Nc1cccc(C(F)(F)F)c1` .
class 0

Each compound tested received a call. Report the one for N#CC1=C(N)Oc2c(ccc3ccccc23)C1c1cccs1 (stereo not given) .
class 1
